Assignment: determine reported cytotoxicity at 10 µM for the given compounds.
Assay: Toxicity liver stage against HepG2, at 10uM
Format: cell-based
Design: test concentration 10 uM, cell line HepG2-A16-CD81EGFP
Settings: human, HepG2-A16-CD81EGFP cells; read-out: INHIBITION
Give the quantity in %, number only.

Entry under test: O=C(C1CNCCO1)N1CCCC(c2ccccc2)(c2ccccc2)C1 (stereo unspecified) . Its cytotoxicity at 10 µM was 12.2

Entry under test: Cc1ccc(CSc2nc(N)cc(NCC(=O)N3CCNCC3)n2)cc1 . Its cytotoxicity at 10 µM was -4.62

Entry under test: CCS(=O)(=O)N1CCc2nc(C3CCN(C(=O)C4CC4)C3)nc(O)c2C1 (stereo unspecified) . Its cytotoxicity at 10 µM was -25.9

Entry under test: COCC1N(S(=O)(=O)c2cn(C)cn2)C2CCC1(O)CC2 (stereo unspecified) . Its cytotoxicity at 10 µM was -2.04

Entry under test: Cc1ccc(C)n1C(C)C(=O)N1CCCN(Cc2cscn2)CC1 (stereo unspecified) . Its cytotoxicity at 10 µM was -8.36

Entry under test: CCOCCCNC(=O)c1nnn(Cc2ccccc2)c1OC . Its cytotoxicity at 10 µM was 9.32

Entry under test: CCn1nc(C)c2ncnc(N(C)C)c21 . Its cytotoxicity at 10 µM was 3.18

Entry under test: CCc1ccc(CC)c(NCc2cnc(N3CCOCC3)nc2)c1 . Its cytotoxicity at 10 µM was 0.898

Entry under test: CN1CCN(C(=O)c2ncn3c2CN(C)S(=O)(=O)c2ccccc2-3)CC1 . Its cytotoxicity at 10 µM was -153

Entry under test: CN(C)CC1CN(c2ncnc3ccsc23)CCO1 (stereo unspecified) . Its cytotoxicity at 10 µM was 12

Entry under test: Cn1c(CN2CCOC(c3nc(C(C)(C)C)n[nH]3)C2)nnc1C1CC1 (stereo unspecified) . Its cytotoxicity at 10 µM was 5.37

====

Assay: Toxicity liver stage against HepG2, at 10uM
Type: cell-based
Parameters: test concentration 10 uM, cell line HepG2-A16-CD81EGFP
Settings: human, HepG2-A16-CD81EGFP cells; read-out: INHIBITION
Assignment: determine reported cytotoxicity at 10 µM for the given compounds.
Give the quantity in %, number only.

Entry under test: CSC(C)(C)CNC(=O)NC1CCN(CC(F)F)CC1 . Its cytotoxicity at 10 µM was -5.12

Entry under test: CN(Cc1ncc[nH]1)CC1CCOc2ccccc2C1 (stereo not drawn) . Its cytotoxicity at 10 µM was -1.93

Entry under test: CS(=O)(=O)N[C@@H]1CN(Cc2ccco2)C[C@@H]2CCCO[C@@H]21 . Its cytotoxicity at 10 µM was 6.15

Entry under test: CCC(O)CNc1nccc(-c2ccc(C)nc2C)n1 (stereo not drawn) . Its cytotoxicity at 10 µM was -2.92

Entry under test: OCCO[C@H]1C[C@@H](O)C12CCN(Cc1nc(C(F)(F)F)no1)CC2 . Its cytotoxicity at 10 µM was 0.145

Entry under test: Cc1occc1C(=O)N1CCn2c(Cn3cncn3)cnc2C1C (stereo not drawn) . Its cytotoxicity at 10 µM was -5.17

Entry under test: CS(=O)(=O)c1ccc(OCCNCc2cccc(Cl)c2)cc1 . Its cytotoxicity at 10 µM was -4.43

Entry under test: Cc1ccc(S(=O)(=O)NC(=O)CCc2cscn2)cc1Cl . Its cytotoxicity at 10 µM was 8.9

Entry under test: NCCNS(=O)(=O)Cc1ccc(Br)cc1 . Its cytotoxicity at 10 µM was 19.4

Entry under test: Cc1nn(-c2ccccc2)cc1C(=O)N1CCCC(n2ccnc2)C1 (stereo not drawn) . Its cytotoxicity at 10 µM was -14.4

Entry under test: O=C1O[C@@H]2CN(Cc3ccccc3)C[C@@H]2N1CCCN1CCOCC1 . Its cytotoxicity at 10 µM was -1.18

Entry under test: CSc1cccc(NC(=O)CCC(=O)Nc2nccs2)c1 . Its cytotoxicity at 10 µM was -5.05

Entry under test: Cc1nc(CCNC2CCN(Cc3ccccc3)C2)sc1C (stereo not drawn) . Its cytotoxicity at 10 µM was 12.3

Entry under test: Cc1nccn1CC1CCCN(S(=O)(=O)c2cnn(C)c2)C1 (stereo not drawn) . Its cytotoxicity at 10 µM was 8.58

Entry under test: NC(=O)CCn1cc(CNCCCc2ccccc2O)c2ccccc21 . Its cytotoxicity at 10 µM was 8.92

Entry under test: O=C(Nc1ccc(-c2csnn2)cc1)N1CCCC1 . Its cytotoxicity at 10 µM was -3.8

Entry under test: O=C(c1ccc(Cl)cc1)N1CCC(N2CCNC2=O)CC1 . Its cytotoxicity at 10 µM was 12.6

Entry under test: CC(=O)N1CCCC(Cc2cnc(C(=O)N3CCC(C)CC3)cn2)C1 (stereo not drawn) . Its cytotoxicity at 10 µM was 4.82

Entry under test: CN(C)C(=O)CCc1cncc(C2CCCN2Cc2ccccn2)n1 (stereo not drawn) . Its cytotoxicity at 10 µM was -3.94

Entry under test: COC(=O)NCC(=O)N1CCC(c2cc3ccccc3[nH]2)CC1 . Its cytotoxicity at 10 µM was -8.55

Entry under test: OC[C@@H](O)CN(CCC(F)(F)F)c1ncc(Cl)cn1 . Its cytotoxicity at 10 µM was 12.8

Entry under test: Cc1ccccc1CN(Cc1ccc(S(C)(=O)=O)cc1)CC(C)C . Its cytotoxicity at 10 µM was 16.6

Entry under test: O=C1NCC[C@]12CN(Cc1nccs1)C[C@H]2c1ccccc1 . Its cytotoxicity at 10 µM was 11

Entry under test: COCCC(=O)NC1CCN(CC2(c3cccc(F)c3)CCCC2)CC1 . Its cytotoxicity at 10 µM was -24.7

Entry under test: CCCS(=O)(=O)N1CCc2nc(N3CCOCC3)nc(N(C)C)c2C1 . Its cytotoxicity at 10 µM was 15.5

Entry under test: CC(C)Cn1cnc(S(=O)(=O)Nc2cccnc2-n2cccn2)c1 . Its cytotoxicity at 10 µM was -1.75

Entry under test: COc1cc2cc(C(=O)NCC(=O)O)n(C)c2c(OC)c1OC . Its cytotoxicity at 10 µM was -77.3

Entry under test: O=C(c1cncc(NCC2COc3ccccc3C2)n1)N1CCCC1 (stereo not drawn) . Its cytotoxicity at 10 µM was -6.53

Entry under test: CC(=O)N1CCC(C(=O)NC2CCc3nccn3C2)CC1 (stereo not drawn) . Its cytotoxicity at 10 µM was -13.4

Entry under test: CC(C(=O)N(Cc1ccc(C#N)cc1)CC(F)(F)F)S(C)(=O)=O (stereo not drawn) . Its cytotoxicity at 10 µM was -2.6

Entry under test: CCc1nc(N)nc(N2CCCC3(CCOCC3)C2)c1C . Its cytotoxicity at 10 µM was -123

Entry under test: CS(=O)(=O)N1CCOC2(CCCC2)C1 . Its cytotoxicity at 10 µM was -4.7

Entry under test: CN(C)CCn1ccnc1C1CCN(C(=O)CCc2ccncc2)CC1 . Its cytotoxicity at 10 µM was -9.67

Entry under test: NC(=O)Cn1cc(NC(=O)N2CCCCCC2)cn1 . Its cytotoxicity at 10 µM was -11.8

Entry under test: Cc1noc(CNC(=O)C(C)(C)NC(=O)OC(C)(C)C)n1 . Its cytotoxicity at 10 µM was 13.9

Entry under test: CC(C)c1nc(-c2cc(C(=O)N3CCN(C)CC3)c3ccccn23)cs1 . Its cytotoxicity at 10 µM was 5.77

Entry under test: Cc1ccccc1C1CCN(C(=O)CCNS(C)(=O)=O)C1 (stereo not drawn) . Its cytotoxicity at 10 µM was -1.03

Entry under test: CC(C)NC(=O)Cc1cnc(-n2cccc2)s1 . Its cytotoxicity at 10 µM was -4.6

Entry under test: CCOCc1cccc(NCc2c[nH]nc2-c2cccnc2)c1 . Its cytotoxicity at 10 µM was -3.9

Entry under test: CC(C)(C)C(=O)N1C[C@H](c2ccsc2)[C@H]2CN(Cc3cccs3)CC[C@H]21 . Its cytotoxicity at 10 µM was 12.7

Entry under test: COc1ccccc1N1CCN(C(=O)CCc2nncn2C)C(C)C1 (stereo not drawn) . Its cytotoxicity at 10 µM was 16

Entry under test: COCCN(CCOC)c1ncccc1I . Its cytotoxicity at 10 µM was -2.69

Entry under test: Cc1cc(Nc2ccc3c(c2)CC(=O)N3)nc(C2CC2)n1 . Its cytotoxicity at 10 µM was 0.658

Entry under test: CCC1=NC(SCC(=O)c2ccc(C)cc2)c2cc(CC)sc2N1 (stereo not drawn) . Its cytotoxicity at 10 µM was 9.76

Entry under test: COc1cccc(-c2noc(-c3ccc(NCCCO)nc3)n2)c1OC . Its cytotoxicity at 10 µM was -1.5

Entry under test: CNc1cccc(CC2COCCN(C(=O)c3cccnc3)C2)n1 (stereo not drawn) . Its cytotoxicity at 10 µM was -1.99

Entry under test: Cn1c(CN2CCC(OCc3cccnc3)CC2)cc2ccccc21 . Its cytotoxicity at 10 µM was -2.65

Entry under test: COc1ccccc1CC(C)N(C)S(C)(=O)=O (stereo not drawn) . Its cytotoxicity at 10 µM was 14

Attribution: ChEMBL document CHEMBL4513216
